// provenance: PubChem BioAssay (NCI)

System: RPMI-8226 leukemia
Experiment: NCI-60 one-dose screen, 48 h (100 = growth as untreated, 0 = no growth, -100 = all killed)
Conditions: 10 µM unless noted
Compounds without any hit were thinned out: in the full panel of roughly 83,000, 20% have a hit.
Each record here notes measured growth.
Please state the figure in %; there is no need to write the unit.

                           structure_smiles  recorded_endpoint  value_measured
0  Brc1ccc2c(c1)c(-c1nc(-c3c[nH]c4ncccc34)cs1)cn2CCN1CCCCC1             growth            51.2
1  C/C1=C/C(=O)O[C@@H]2C[C@@H](CC[C@H](C)/C=C\C=C\CC1)O[C@@](O)([C@@H]1CSC(=O)N1CO)C2             growth            50.7

# get_value(readout='growth', item= "C=CCCCN=C=S" ) 49
